- study.target: T1, Macaca fascicularis (mf) RET.mmh (Macaca fascicularis)
- T1 construct: also called monkey RET
- T1 chain: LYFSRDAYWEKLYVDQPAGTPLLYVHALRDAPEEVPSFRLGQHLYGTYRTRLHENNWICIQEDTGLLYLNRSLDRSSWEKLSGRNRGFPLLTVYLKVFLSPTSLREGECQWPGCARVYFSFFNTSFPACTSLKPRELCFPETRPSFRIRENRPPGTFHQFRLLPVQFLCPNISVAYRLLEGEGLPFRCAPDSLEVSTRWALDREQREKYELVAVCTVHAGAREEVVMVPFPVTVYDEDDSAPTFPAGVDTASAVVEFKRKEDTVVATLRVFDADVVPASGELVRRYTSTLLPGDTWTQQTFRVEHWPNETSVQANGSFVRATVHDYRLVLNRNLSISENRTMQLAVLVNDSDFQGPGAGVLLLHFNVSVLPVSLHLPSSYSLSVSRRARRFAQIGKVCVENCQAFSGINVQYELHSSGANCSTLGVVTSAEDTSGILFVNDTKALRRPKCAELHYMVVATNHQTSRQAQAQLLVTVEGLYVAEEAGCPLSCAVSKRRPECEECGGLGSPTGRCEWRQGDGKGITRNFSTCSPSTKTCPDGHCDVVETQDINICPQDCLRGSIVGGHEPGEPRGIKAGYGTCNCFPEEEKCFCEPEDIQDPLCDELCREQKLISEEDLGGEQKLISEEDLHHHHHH
- test.details: SPR Biacore T200, mAb capture, 37 C
measured.attribute: koff (s⁻¹)
Express your answer in s⁻¹, writing the number without its unit.

{"binder": "H4H8087P (antibody, human IgG4, V domains shown, human IgG4 Fc (H4H prefix)) VH: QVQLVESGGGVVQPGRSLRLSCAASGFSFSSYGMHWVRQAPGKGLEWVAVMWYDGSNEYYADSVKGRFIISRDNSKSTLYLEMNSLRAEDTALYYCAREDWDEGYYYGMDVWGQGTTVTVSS VL: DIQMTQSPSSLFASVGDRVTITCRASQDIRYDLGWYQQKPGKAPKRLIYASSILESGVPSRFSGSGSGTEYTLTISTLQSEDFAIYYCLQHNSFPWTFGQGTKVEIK", "unit.info": "s⁻¹", "koff": 0.00131}

Please find the next binder below.
Inquiry: Given the binder H4H8056P (antibody, human IgG4, V domains shown, human IgG4 Fc (H4H prefix)) VH: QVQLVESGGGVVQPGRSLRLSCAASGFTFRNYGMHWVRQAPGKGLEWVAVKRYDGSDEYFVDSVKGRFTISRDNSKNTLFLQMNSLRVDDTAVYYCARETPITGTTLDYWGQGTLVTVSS VL: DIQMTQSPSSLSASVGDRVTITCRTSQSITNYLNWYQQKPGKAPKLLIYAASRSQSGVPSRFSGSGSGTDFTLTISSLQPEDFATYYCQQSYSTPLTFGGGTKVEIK , what is its reported koff?
Reply text: 0.00313

// provenance: patent US20220185900A1
